- target_under_test: T1, human IL-17A (human, UniProt Q16552 24-155)
- T1 construct: secreted form (GenBank U32659) expressed in Hek293 with C-terminal 6-His; also called hIL-17A; IL-17A-6HIS
- method_summary: ELISA, coated IL-17A
Record form. Attribute: OD. Fill in for each entry.
One number for each entry, in OD.

Example cases with answers are listed next.
* 07B09 (VHH, Class 3) VHH: EVQLVESGGGLVQAGGSLRLSCGASGGTFSSYATGWFRQAPGKEREFVAVLRWSDGHTAYADSVKGRFTISRDGAKNTMYLQMSSLKPEDTAIYYCTTATRPGEWDYWGQGTQVTVSS | 0.005
* 13E02 (VHH, Class 4; also called IL17MS13E02) VHH: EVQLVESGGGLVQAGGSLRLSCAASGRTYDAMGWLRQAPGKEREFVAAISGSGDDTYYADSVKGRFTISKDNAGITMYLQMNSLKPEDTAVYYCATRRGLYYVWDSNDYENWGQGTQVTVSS | 1.79
* 13E05 (VHH, Class 4) VHH: EVQLVESGGGKVQAGDSLTLSCVASGGTFSNYAAWFRQAPGKDRRELVVSIFRTGSITYTADSVKGRFTASRVNTKNTVYLQMNSLKPEDTAVYYCASAYNPGVGYDYWGQGTQVTVSS | 1.96
* 13B05 (VHH, Class 4) VHH: EVQLVESGGRLVQAGGSLRLSCAASGRTFTSYPMGWFRQAPGKEREFVAAISMSGDDTAYTDFVRGRFTISRDDARNTVYLHMTSLKPEDTAVYYCAARTSYDGTYDYIDDYSYWGQGTQVTVSS | 1.82
* 16A04 (VHH, Class 3; also called IL17MS16A04) VHH: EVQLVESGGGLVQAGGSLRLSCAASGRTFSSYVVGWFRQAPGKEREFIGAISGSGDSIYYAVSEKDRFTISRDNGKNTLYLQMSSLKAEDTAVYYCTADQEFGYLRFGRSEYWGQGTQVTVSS | 0.043

Quick batch: OD for everything below.
1. 11C08 (VHH, Class 4) VHH: EVQLVESGGGLVQAGGSLRLSCAASGVIFRLNAMGWYRAAPGKQRELVAIIVNGGSTNYADSVKGRFTISRDSAKNAVYLQMNSLKPEDTAVYYCYYNIPGDVYWGQGTQVTVSS
2. 03C07 (VHH, Class 2) VHH: EVQLVESGGGLVQAGGSLRLSCAASGFTFDDYAIGWFRQAPGKEREAVSCFSSSDGSIYYADSVKGRFTISSDNAKNTVYLQMNSLKPEDTAVYYCAGGGGSYYYTQLNYCYDMDYWGKGTQVTVSS
3. 01A01 (VHH, Class 4) VHH: EVQLVESGGGLVQAGGSLRLSCAASGFTFDDYDIGWFRQAPGKEREGVSCFTSSDGRTFYADSVKGRFTVSADNAKNTVYLQMNSLEPEDTAVYFCAAVNTFDESAYAAFACYDVVRWGQGTQVTVSS
4. 04G01 (VHH, Class 2; also called IL17MS04G01) VHH: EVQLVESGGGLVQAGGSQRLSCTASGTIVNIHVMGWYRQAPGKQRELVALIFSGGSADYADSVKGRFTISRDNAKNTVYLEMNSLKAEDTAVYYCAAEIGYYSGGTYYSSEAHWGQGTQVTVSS
5. 07B11 (VHH, Class 3) VHH: EVQLVESGGGLVQAGGSLRLSCVASGRAFSSYVMGWFRQAPGMEREFVALIRWSDGITGYVDSVKGRFTISRDNAKNTVYLQMNSLKPEDTAVYYCAAAVRPGDYDYWGQGTQVTVSS
6. 09G10 (VHH, Class 2) VHH: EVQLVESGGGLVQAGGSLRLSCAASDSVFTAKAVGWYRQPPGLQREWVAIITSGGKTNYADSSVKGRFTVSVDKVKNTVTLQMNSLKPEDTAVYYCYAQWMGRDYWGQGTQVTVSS

[1.71, 1.7, 1.83, 1.9, 0.03, 1.64]
